# MEASUREMENT_DESCRIPTION: Toxicity liver stage against HepG2, at 10uM
# Format: cell-based
# Parameters: test concentration 10 uM, cell line HepG2-A16-CD81EGFP
# TEST_CONDITIONS: human, HepG2-A16-CD81EGFP cells; read-out: INHIBITION
ASSAY_ENDPOINT: cytotoxicity at 10 µM (%)
Numbers only, in %.

Sample answers from the record:
- CC(C)N(C)Cc1cncc2c1CCN(C(=O)c1ccccc1F)C2: 2.35
- CCS(=O)(=O)c1ccc(N2CCC(NC(=O)C3CCCCC3)CC2)cc1: 12
- Cc1cc(N(Cc2ccccn2)C2CC2)n2nc(C(F)(F)F)nc2n1: -5.83
- Cc1cc(CNC(=O)c2cc(COc3cncc(Cl)c3)on2)n[nH]1: 16.1
- CN(Cc1nnc(C2CC2)n1C)C1CCN(Cc2ccon2)C1 (stereo unspecified): -9.04

Recorded cytotoxicity at 10 µM (compound CC(=O)NC[C@H]1COCc2nc3cc(S(C)(=O)=O)ccc3n21 ): 0.722

---

Assignment: determine reported cytotoxicity at 10 µM for the given compounds.
# MEASUREMENT_DESCRIPTION: Toxicity liver stage against HepG2, at 10uM
# Assay type: cell-based
# Design: test concentration 10 uM, cell line HepG2-A16-CD81EGFP
# TEST_CONDITIONS: human, HepG2-A16-CD81EGFP cells; read-out: INHIBITION
Give bare numbers, in %.

Sample answers from the record:
- CS(=O)(=O)c1cn[nH]c1C1CCCN(C(=O)Cn2cccn2)C1 (stereo unspecified): -11.7
- COCC1CN(CC2CC2)Cc2nn(CC3CC3)cc21 (stereo unspecified): -71.4
- CC(=O)N1CCC(CCc2ccnc(Nc3ccccn3)c2)CC1: 5.57
- CN1CCN(Cc2ccncc2)C(=O)C12CCN(Cc1ccsc1)CC2: 3.03

Could you tell me cytotoxicity at 10 µM for each of these compounds? They are listed below.
1. CNC(=O)c1cn[nH]c1C1CCCN1C(=O)c1ccccn1 (stereo unspecified)
2. COCC(=O)N[C@H](C)c1c(-c2ccc(OC)cc2)noc1C(=O)O

8.52
0.588

---

# MEASUREMENT_DESCRIPTION: Toxicity liver stage against HepG2, at 10uM
# Format: cell-based
# Design: test concentration 10 uM, cell line HepG2-A16-CD81EGFP
# TEST_CONDITIONS: human, HepG2-A16-CD81EGFP cells; read-out: INHIBITION
ASSAY_ENDPOINT: cytotoxicity at 10 µM (%)
Numbers only, in %.

- O=C(c1ccncc1)N1CCCn2c(CN3CCCC3)nnc2C1: -76.9
- CCC(NS(C)(=O)=O)c1ccccc1C (configuration not stated): -43.2

Could you tell me cytotoxicity at 10 µM for each of these compounds? They are listed below.
1. Cn1cc(C(=O)CC2CCCN2C(=O)c2ccc(Cl)o2)cn1 (configuration not stated)
2. Oc1cc(CN2CCC(O)(Cn3ccnc3)CC2)nc2ccc(F)cc12
3. COc1ccc(S(=O)(=O)N2CCOC(C)(C(N)=O)C2)cc1 (configuration not stated)

[-4.57, -44.5, 5.49]

Could you tell me cytotoxicity at 10 µM for each of these compounds? They are listed below.
1. CC(C)n1ccnc1CN1CCOC(C)(C(=O)N2CCOCC2)C1 (configuration not stated)
2. CO[C@H]1CCN(S(=O)(=O)N(C)C)[C@@H]2CN(Cc3cccnc3)C[C@H]12
3. CC[C@H](C)Nc1ncc(-c2cccc(NC(=O)CNC)c2)cn1
4. O=C(c1cncc(NCC2COc3ccccc3C2)n1)N1CCCCC1 (configuration not stated)
5. CCS(=O)(=O)N1CCN(C(=O)c2ccc(Cn3cc(Br)cn3)cc2)CC1
6. CCS(=O)(=O)N1C[C@H]2CCC[C@@]2(COc2ccccn2)C1

1. -8.58
2. 11.9
3. -4.97
4. 1.64
5. -2.61
6. -4.09

Could you tell me cytotoxicity at 10 µM for each of these compounds? They are listed below.
1. CN(c1ncc(C(=O)Nc2ccccc2)c(N)n1)C1CCCCC1
2. CN1CC2(CCCN(Cc3ccc(Oc4ccccc4)cc3)C2)OC1=O (configuration not stated)
3. CC(C)C1CN(C(=O)c2cc(=O)[nH]c(=O)[nH]2)CCC(=O)N1CC1CC1 (configuration not stated)
4. CNc1cccc(C2CCCN(C(=O)c3cccnc3)C2)n1 (configuration not stated)
5. CC(NC(=O)CCCc1nc(C(C)(C)C)no1)c1ccccn1 (configuration not stated)
6. CSC(C)C(=O)N1CCC(Oc2cc(C)ccc2F)(C(=O)O)CC1 (configuration not stated)
7. CC(=O)N1CCN(C(=O)CNc2ccc3ncsc3c2)CC1

-6.21
15.8
1.08
-16.6
-5.81
2.88
-2.01
